# System: HS 578T breast
# test: NCI tumour cell line growth inhibition, 48 h
measured_endpoint: GI50

Prompt: Indicate its recorded GI50; the compound in question is `COc1cc(/C=N\Nc2ccccc2)ccc1OC(=O)c1ccccc1`
Completion: 18 µM

Prompt: Tell me its GI50 given `Cc1ccc(C)c(N2CCN(c3ccncc3N)CC2)c1` as the entry.
Completion: 14.8 µM

Prompt: Query GI50 for `COc1cc(OC)c(/C=C/S(=O)(=O)Cc2ccc(OC)c(N)n2)c(OC)c1`
Completion: < 0.01 µM

Prompt: Dear colleague, please send me the reported GI50 for `CN1CCN(Cc2ccc(NC(=O)c3cncc(C#Cc4c(N)ncc5ccccc45)c3)cc2C(F)(F)F)CC1` when you can.
Completion: 0.64 µM

Prompt: Give GI50 for `CC/C(=C/c1ccc(OC)cc1)[N+](=O)[O-]`
Completion: 3.84 µM

Prompt: Quick one: give measured GI50 for `CC(C)(C)n1cc(-c2ccnc(NCCCNS(=O)(=O)c3cccc4ccccc34)c2)c(-c2cccc(O)c2)n1`
Completion: 1.89 µM

Prompt: Answer with the recorded GI50 of `CCCCCCCCCC(=O)Oc1ccc(/C(=C(/C)c2ccccc2)c2ccc(OCCN3CCCC3)cc2)cc1` only.
Completion: 9.55 µM

Prompt: Using the record for `O=C(c1ccccc1)c1nn(-c2cccc(Cl)c2)c2nc3nc(-c4ccccc4)cc(=O)n3nc12` , state its measured GI50.
Completion: > 25 µM

---

Can you tell me TGI for the items I'm about to list?
# System: UO-31 renal
# test: NCI tumour cell line growth inhibition, 48 h
Just the number please, in µM, no unit attached.

Prompt: Give the value of TGI reported for the following: CC(C)C1OC(=O)C(Cc2ccccc2)N(C)C(=O)C(C(C)C)OC(=O)C(Cc2ccccc2)N(C)C(=O)C(C(C)C)OC(=O)C(Cc2ccccc2)N(C)C1=O (stereo not given)
Completion: 1.27

Prompt: Report TGI, nothing else, for this compound: `NN=C1/C(=C\c2ccccc2)CCC/C1=C/c1ccccc1`
Completion: 94.2

Prompt: Report measured TGI; entry is `CCOC(=O)c1cccc(N=NNc2cccc(C(=O)OCC)c2)c1`
Completion: 45.6

Prompt: // Input: `COc1cc2c3c(c4ccc(O)cc4c2cc1OC)[C@@H](O)[C@@H]1CCCN1C3` . Output its TGI only.
Completion: 0.0211

---

# Tested on: PC-3 prostate
# test: NCI tumour cell line growth inhibition, 48 h
measured_endpoint: TGI

Prompt: Tell me measured TGI for `O=C(Cn1c(=O)oc2ccccc21)N(c1ccccc1)c1ccccc1` please.
Completion: > 100 µM

Prompt: Indicate its recorded TGI; the compound in question is CCC(CCCC[C@H]1CC[C@@H]2CC(=O)C[C@H]12)OC (stereo partly drawn)
Completion: > 100 µM

Prompt: Name the recorded TGI of the item NP1(Oc2ccc(F)cc2)=NP(N)(Oc2ccc(F)cc2)=NP(Oc2ccc(F)cc2)(Oc2ccc(F)cc2)=N1 (stereo not drawn) in your answer.
Completion: 16.4 µM

Prompt: Quick one: give measured TGI for `O=C(C=P(c1ccccc1)(c1ccccc1)c1ccccc1)c1ccccc1-c1ccccc1C(=O)C=P(c1ccccc1)(c1ccccc1)c1ccccc1`
Completion: 1.23 µM

Prompt: Identify the reported TGI for the following entry. `COc1cc2c(cc1C)NC(=O)/C2=C/c1c(Cl)[nH]c2ccccc12`
Completion: 18.3 µM

Prompt: Given CC(C)C(Sc1nc(N)nc2nc[nH]c12)C(=O)O (stereo not drawn) , respond with its TGI.
Completion: > 100 µM

Prompt: # return recorded TGI for entry `O=c1[nH]nc(-c2cccc([N+](=O)[O-])c2)[nH]1`
Completion: > 100 µM

Prompt: State its TGI: `Cc1c(CCCl)c(Cl)n2c(nc3ccccc32)c1C#N`
Completion: 2.4 µM

Prompt: For the compound `ClC/C=C/CSc1ncnc2nc[nH]c12` , give its reported TGI.
Completion: > 100 µM

Prompt: State, in one line, measured TGI of CN1N=C(c2ccncc2)OC1c1ccc(C(F)(F)F)cc1 (stereo not drawn)
Completion: > 100 µM

Prompt: Output TGI of `NS(=O)(=O)c1ccc(Nc2c3ccccc3nc3c(C(=O)NC(CO)(CO)CO)cccc23)cc1`
Completion: 0.814 µM

Prompt: Answer with reported TGI of `COc1ccc2c(c1O)[C@@]13CCCC=C1[C@@H](C2)N(C)CC3`
Completion: > 100 µM

Prompt: Report measured TGI; entry is CCC(C)C(NC(=O)c1cccc2c(=O)c3ccccc3[nH]c12)C(=O)O (stereo not drawn)
Completion: > 100 µM

Prompt: Return reported TGI. Input compound: `O=C(NCCN1CCOCC1)c1cc2c(Oc3ccc(NC(=O)C4(C(=O)Nc5ccc(F)cc5)CC4)cc3)ccnc2[nH]1`
Completion: 64.6 µM

Prompt: Item `CCOC(=O)c1c(CN2CCCCC2)nc2ccc(Cl)cc2c1-c1ccccc1` : provide TGI
Completion: 93.7 µM

Prompt: // fetch TGI given entry `O=C(c1ccccc1)c1nn(-c2cccc(Cl)c2)c2nc3nc(-c4ccccc4)cc(=O)n3nc12`
Completion: > 25 µM

Prompt: Look up and report measured TGI for this entry: CC1OC(O[C@@H]2C=C3CC[C@@H]4[C@H](CC[C@]5(C)[C@@H](c6ccc(=O)oc6)CC[C@]45O)[C@@]3(C)CC2)C(O)C(O)C1O (stereo partly drawn)
Completion: 0.00558 µM

Prompt: Supply reported TGI belonging to this compound: `OC[C@H]1C[C@](O)(c2ccccc2Cl)[C@@H](c2ccccc2Cl)O1`
Completion: 74.6 µM

Prompt: Give the reported TGI for this compound. `C=CCSC1=N/C(=C\c2ccc(C)cc2)C(=O)N1CC=C`
Completion: 70 µM

Prompt: Give a short answer stating reported TGI for `COC(=O)[C@]12CC[C@@H](C)[C@H](C)[C@@H]1C1=CC[C@@H]3[C@@]4(C)C[C@@H](OC(C)=O)[C@H](OC(C)=O)[C@@](C)(COC(C)=O)[C@@H]4[C@H](O)C[C@@]3(C)[C@]1(C)CC2` .
Completion: > 100 µM

Prompt: Entry `CN(CCNC(=O)c1nn(C)c2c1Cc1ccccc1-2)CCNC(=O)c1nn(C)c2c1Cc1ccccc1-2` needs its TGI filled in; supply it.
Completion: 47.6 µM

Prompt: Specify reported TGI for the compound shown: CC(C)C1OC(=O)C(Cc2ccccc2)N(C)C(=O)C(C(C)C)OC(=O)C(Cc2ccccc2)N(C)C(=O)C(C(C)C)OC(=O)C(Cc2ccccc2)N(C)C1=O (stereo not drawn)
Completion: 1.91 µM

Prompt: Note TGI for the compound shown: `C=CC[PH+](c1ccccc1)c1ccccc1.C=CC[PH+](c1ccccc1)c1ccccc1.[Pt+2].[S-]c1nc2ccccc2[nH]1.[S-]c1nc2ccccc2[nH]1`
Completion: 5.58 µM

Prompt: Look up TGI of `COc1cc(OC)c(/C=C/S(=O)(=O)Cc2ccc(OC)c(N)n2)c(OC)c1` and report it.
Completion: > 100 µM

Prompt: Please report the measured TGI for `Nc1nc(N)c(CCCCc2ccc([N+](=O)[O-])cc2)c(N)n1`
Completion: > 100 µM

Prompt: State its TGI: `CCOC(=O)c1cccc(N=NNc2cccc(C(=O)OCC)c2)c1`
Completion: > 100 µM

Prompt: Quickly give me recorded TGI for `Cc1[nH]c2c(C)c3c([nH]c4ccc(Cl)cc43)c(C)c2c(=O)c1C`
Completion: 22.4 µM

Prompt: Report TGI, nothing else, for this compound: O=C1c2ccccc2-c2cn(Cc3ccccc3)c3cccc(c23)C1c1cccnc1 (stereo not drawn)
Completion: > 50 µM

Prompt: Annotate the compound COc1cccc(C2c3cc4c(cc3OC(NNS(=O)(=O)c3ccc(C)cc3)C2C)OCO4)c1O (stereo not drawn) with its measured TGI.
Completion: 65.8 µM

Prompt: For the compound `CCc1nnc2sc(-c3ccc(-c4ccccc4[N+](=O)[O-])o3)nn12` , report TGI.
Completion: > 100 µM

Prompt: Quote TGI reported for `O=C(Nc1c[nH]c(=O)[nH]c1=O)Oc1ccccc1` please.
Completion: > 100 µM

Prompt: Quick one: give measured TGI for CNC(=O)OC1/C(C)=C\C(C)C(O)C(OC)CC(C)CC2=C(OC)C(=O)C=C(C2=O)N(C)C(=O)/C(C)=C/C=C\C1OC (stereo not drawn)
Completion: 26 µM

Prompt: State its TGI: `Cc1ccc(C)c(N2CCN(c3ccncc3N)CC2)c1`
Completion: 84.7 µM

Prompt: # return recorded TGI for entry `COc1ccc2c(Cl)cc(NC(=S)Nc3ccccc3)nc2c1`
Completion: 66.4 µM

Prompt: Return reported TGI. Input compound: `CC[C@@]1(O)C(=O)OCc2c1cc1n(c2=O)Cc2c-1nc1ccc(N)cc1c2CC[Si](C)(C)C`
Completion: 13.7 µM

Prompt: # return recorded TGI for entry `NS(=O)(=O)c1cccc(Nc2cc(-c3ccc(F)cc3)[nH]n2)c1`
Completion: > 25 µM

Prompt: For the compound `c1cc(CSP234N5CCN2CCN3CCN4CC5)cc(CSP234N5CCN2CCN3CCN4CC5)c1` , give its reported TGI.
Completion: > 100 µM

Prompt: Identify the reported TGI for the following entry. `Nc1nc(SCC#CCCl)c2[nH]cnc2n1`
Completion: 75.8 µM

Reference for the values: PubChem BioAssay (NCI)
